- Test system: HT29 colon
- ASSAY METHOD TEXT: NCI-60 one-dose screen, 48 h
- TEST PARAMETERS: 10 µM unless noted
The panel holds about 83,000 compounds, 20% with a hit somewhere; the sample as a whole holds those more often. Calls of active or inactive are those of the source. The calls were made as follows: active = growth percent below 10; inactive = the rest.
Answer with one of the outcomes given here: active, inactive

Query: recorded result category for C=C1C(=O)O[C@H]2[C@H]1CC/C(COC(=O)CCCCCCCC(=O)OC/C1=C/CC[C@@]3(C)O[C@H]3[C@H]3OC(=O)C(=C)[C@@H]3CC1)=C\CC[C@@]1(C)O[C@@H]21 in this test active

Query: recorded result category for O=C(NC[C@H](O)CN1CCc2ccccc2C1)c1cc(NC2COC2)ncn1 in this test inactive

Query: recorded result category for OCCNc1nc(NCCO)nc(Nc2ccc(C3=NN(c4cc(Cl)cc(Cl)c4)C(c4ccc(C(F)(F)F)cc4)C3)cc2)n1 (stereo not drawn) in this test inactive

Query: recorded result category for COc1ccc(-c2nnc(N3CCN(C(=O)CN4CCN(c5ccc(OC)cc5)CC4)CC3)nc2-c2ccc(OC)cc2)cc1 in this test active

Query: recorded result category for COCCOCCOCc1n(Cc2ccc3ccccc3n2)c2ccccc2[n+]1Cc1ccc2ccccc2n1 in this test inactive

Query: recorded result category for C[C@H]1[C@H](C)CC[C@]2(C(=O)OCCCC[P+](c3ccccc3)(c3ccccc3)c3ccccc3)CC[C@]3(C)C(=CC[C@@H]4[C@@]5(C)CC[C@H](OC(=O)C(Cl)Cl)C(C)(C)[C@@H]5CC[C@]43C)[C@H]12 in this test active

Query: recorded result category for C=CCn1c(SCC(=O)Nc2ccc(C(=O)/C=C/c3ccc(Cl)cc3)cc2)nnc1-c1cc(OC)c(OC)c(OC)c1 in this test inactive

Query: recorded result category for Cc1cnc(-c2ccc(-c3ccc(NC(=O)Nc4c(F)cc(F)cc4F)cc3F)c3c2C(=O)NC3)[nH]1 in this test inactive

Query: recorded result category for CC[C@H](Nc1ncnc2nc[nH]c12)c1nc2cccc(CC(=O)c3ccc(C(=O)NO)cc3)c2c(=O)n1-c1ccccc1 in this test inactive

Query: recorded result category for COc1ccc(OCC(=O)OC(C)C)cc1 in this test inactive

Query: recorded result category for O=C(Nc1nc2ccc(C(F)(F)F)cc2s1)c1cc(Cl)ccc1O in this test active

Query: recorded result category for O=C1NN(c2ccccc2)C(c2ccc3c(c2)OCO3)N2CCC[C@@H]12 (stereo partly drawn) in this test inactive

Query: recorded result category for COc1cc2c(cc1OC)C(Sc1ccc(Cl)cc1)c1c(nc(N)c(C#N)c1N)O2 (stereo not drawn) in this test active

====

- System: UO-31 renal
- ASSAY METHOD TEXT: NCI-60 one-dose screen, 48 h
- TEST PARAMETERS: 10 µM unless noted
This is part of a sample that, as a whole, favours compounds with a hit. Of some 83,000 tested, about 20% had one in any assay. Active and inactive are the calls of the source. Rule for the calls: active = growth percent below 10; inactive = the rest.
Answer with one of the outcomes given here: true (1) = active, false (0) = inactive

Query: recorded result category for COC(=O)/C=C1\SC(=Nc2cccc(OC)c2)N(CCc2c[nH]c3ccccc23)C1=O in this test false (0)

Query: recorded result category for COC(=O)c1ccc(NC(=O)CSc2nc(-c3ccc(F)cc3)nc3ccccc23)cc1 in this test false (0)

Query: recorded result category for CC(C)Cc1cc(CNC(=O)C2[C@H]3CN(C(=O)c4ccccc4)C[C@@H]23)nn1-c1ccccc1 (some centres undefined) in this test false (0)

Query: recorded result category for COc1cc(/C=C/CO)cc(OC)c1O[C@@H]1O[C@H](CO)[C@@H](O)[C@H](O)[C@H]1O in this test false (0)

Query: recorded result category for COc1ccc([C@H]2[C@@H](F)C(=O)N2c2cc(OC)c(OC)c(OC)c2)cc1F in this test false (0)

Query: recorded result category for N#Cc1c(-c2ccc(F)cc2)nc(N/N=C/c2c[nH]c3ccccc23)nc1N1CCOCC1 in this test false (0)

Query: recorded result category for CSc1nc(-c2cccs2)c2c(N)[nH]nc2n1 in this test false (0)

Query: recorded result category for COc1cc(NCC(=O)Nc2cc(Nc3cccc(C(F)(F)F)c3)ncn2)c(Cl)c(OC)c1Cl in this test false (0)

Query: recorded result category for C=C1C(=O)O[C@H]2[C@H]1CCC(/C=N/c1ncc(Br)cc1N)=C\CC[C@@]1(C)O[C@@H]21 in this test true (1)

The reported numbers originate from PubChem BioAssay (NCI).
